target: human alpha-synuclein monomer (human, UniProt P37840 1-140); assay: SPR (Biacore 8K), IgG captured on anti-human Fc, aSyn monomer injected
Measured Kd, listed per entry.
Use nM as the unit, but write only the number.

The following binders have reported results that may help.
Chimeric 20H4 (antibody, human IgG1, kappa, V domains shown, also called Chi 20H4; chimeric 20H4 control) VH: AVQLVESGGGLVQPKESLKISCAASGFTFSNAAMYWVRQAPGKGLELLARIRTKPNNYATYHADSVKGRFTISRDDSQSMVYLHMGNLKTEDTAMYYCTADMATGDYWGPGVMVTVSS VL: DIQMTQSPPVLSVSVGDRVTLSCKASQNINKNLDWYQQKHGEAPKPLIYSTNNLQTGVPSRFSGSGSGTDYTLTISSLQPEDVATYYCYQYKSAWTFGGGTKLELRR; 2.96
HC3_LC2 (antibody, V domains shown, humanized 20H4 IgG) VH: EVQLVESGGGLVQPGGSLRLSCAASGFTFSNAAMYWVRQAPGKGLELVSRIRTKPNNYATYHADSVKGRFTISRDNSKNTVYLQMNSLRAEDTAVYYCTADMATGDYWGQGTLVTVSS VL: DIQMTQSPSSLSASVGDRVTITCKASQNINKNLDWYQQKPGKAPKPLIYSTNNLQTGVPSRFSGSGSGTDFTLTISSLQPEDFATYYCYQYKSAWTFGQGTKVEIK; 1.63
HC5_LC5 (antibody, V domains shown, humanized 20H4 IgG) VH: EVQLVESGGGLVQPGGSLRLSCAASGFTFSNAAMYWVRQAPGKGLELLARIRTKPNNYATYHADSVKGRFTISRDDSKNTVYLQMNSLRAEDTAVYYCTADMATGDYWGQGTLVTVSS VL: EIVMTQSPATLSLSPGERATLSCKASQNINKNLDWYQQKPGQAPRPLIYSTNNLQTGIPARFSGSGSGTDFTLTISSLQPEDFAVYYCYQYKSAWTFGQGTKVEIK; 2.46
HC3_LC5 (antibody, V domains shown, humanized 20H4 IgG) VH: EVQLVESGGGLVQPGGSLRLSCAASGFTFSNAAMYWVRQAPGKGLELVSRIRTKPNNYATYHADSVKGRFTISRDNSKNTVYLQMNSLRAEDTAVYYCTADMATGDYWGQGTLVTVSS VL: EIVMTQSPATLSLSPGERATLSCKASQNINKNLDWYQQKPGQAPRPLIYSTNNLQTGIPARFSGSGSGTDFTLTISSLQPEDFAVYYCYQYKSAWTFGQGTKVEIK; 2.4

Note: attention shifts to another entry.
-- ask Retrieve Kd measured for HC2_LC1 (antibody, V domains shown, humanized 20H4 IgG) VH: EVQLVESGGGLVQPGGSLRLSCAASGFTFSNAAMYWVRQAPGKGLELVSRIRTKPNNYATYHADSVKGRFTISRDNSKNTLYLQMNSLRAEDTAVYYCTADMATGDYWGQGTLVTVSS VL: DIQMTQSPSSLSASVGDRVTITCKASQNINKNLDWYQQKPGKAPKLLIYSTNNLQTGVPSRFSGSGSGTDFTLTISSLQPEDFATYYCYQYKSAWTFGQGTKVEIK and print it.
-- reply 3.21
